- assayed.system: Glutamate receptor ionotropic, AMPA (Rattus norvegicus, UniProt P19490+P19491+P19492+P19493)
- experiment.notes: Compound was tested or its affinity against AMPA receptor in rats
observed.property: IC50

Task: Look up IC50: `C=CCN(CC(=O)O)c1c(N)c(=O)c1=O`
Output: > 100 µM

###

Each record here notes measured pIC50.
- assayed.system: Glutamate NMDA receptor
- experiment.notes: Inhibition of [3H]CPP binding to rat N-methyl-D-aspartate glutamate receptor
- Assay type: protein-complex assay
Hey, just a heads up that pIC50 is the negative log base 10 of the concentration in molar.

{"compound": "C=CCN(CC(=O)O)c1c(N)c(=O)c1=O", "assayed.system": "Glutamate NMDA receptor", "pIC50": 5.00}

Task: Fill blank: measured pIC50 of the compound `C/N=c1\c(O)c(O)\c1=N/CCC(=O)O` is ____.
Output: 4.70

Task: # input compound: `CCOC(=O)C/N=c1\c(O)c(O)c1=N` ; wanted: its pIC50
Output: 3.72

Task: What value of measured pIC50 is listed for `Nc1c(NCCn2oc(=O)[nH]c2=O)c(=O)c1=O` ?
Output: 5.28

Task: Look up pIC50: NC(CCCCCP(=O)(O)O)C(=O)O (stereo not drawn)
Output: 6.41

###

- assayed.system: Glutamate NMDA receptor
- experiment.notes: Compound tested for affinity towards N-methyl-D-aspartate glutamate receptor by measuring their ability to displace [3H]TCP from rat brain
observed.property: pIC50
# reply with the number alone; pIC50 is -log10 of concentration in mol/L

Task: Could you tell me which pIC50 is on file for O=C(O)C1CN(CCCP(=O)(O)O)CCN1 (stereo unspecified) ?
Output: 4.35

###

- assayed.system: Glutamate NMDA receptor
- experiment.notes: Inhibition of [3H]CPP binding to rat N-methyl-D-aspartate glutamate receptor
- Type: protein-complex assay
pIC50: −log10 of the molar value.
Below, each of the molecules is paired with its reported pIC50 value.

Consider the worked cases shown below.
{"molecule": "NS(=O)(=O)c1cccc2c1c([N+](=O)[O-])cc1nc(O)c(O)nc12", "pIC50": "< 5.00"}
{"molecule": "O=C(O)CCNc1c(O)c(=O)/c1=N\\Cc1ccccc1", "pIC50": "< 4.00"}

// switching to the query molecule
Task: Which pIC50 reading was recorded for the molecule N[C@@H](Cn1oc(=O)[nH]c1=O)C(=O)O [QUISQUALATE] ?
Output: < 4.00
